Target chain: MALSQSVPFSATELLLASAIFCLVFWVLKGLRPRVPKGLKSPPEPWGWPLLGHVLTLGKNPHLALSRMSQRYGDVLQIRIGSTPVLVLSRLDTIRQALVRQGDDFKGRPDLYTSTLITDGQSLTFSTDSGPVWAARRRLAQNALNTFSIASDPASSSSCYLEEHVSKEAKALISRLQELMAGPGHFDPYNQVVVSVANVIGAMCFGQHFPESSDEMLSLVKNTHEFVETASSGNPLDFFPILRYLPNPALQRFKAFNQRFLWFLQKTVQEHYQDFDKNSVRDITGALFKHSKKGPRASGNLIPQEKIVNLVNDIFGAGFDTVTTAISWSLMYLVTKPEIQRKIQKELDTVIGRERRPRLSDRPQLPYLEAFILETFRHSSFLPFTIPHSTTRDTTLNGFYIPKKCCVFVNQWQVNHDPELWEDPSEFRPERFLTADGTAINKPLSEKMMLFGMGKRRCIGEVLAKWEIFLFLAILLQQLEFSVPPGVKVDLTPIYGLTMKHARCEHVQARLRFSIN
Recorded metric: AC50

Some solved entries appear below for comparison.
* O=C(NC(=S)Nc1cccc(Cl)c1N1CCCC1)c1ccc(-c2cccc([N+](=O)[O-])c2)o1 | 25.1 µM (inconclusive)
* Cc1ccc(OCCCC(=O)N2CCOCC2)cc1 | 25.1 µM (inconclusive)
* CCCc1nc2ccccc2c(C(=O)OCC(=O)Nc2cccc(S(=O)(=O)N3CCOCC3)c2)c1CC | 10 µM (inconclusive)

Query string: Fill blank: measured AC50 of the molecule CNC(=O)[C@H](C)[C@@H]1C[C@@]1(C)[C@@H](NC(=O)OCc1ccccc1)c1ccccc1 is ____.
Result string: 20 µM (inconclusive)

Query string: Also CCCC/C=C/C(NC(=O)c1ccc(-c2ccccc2)cc1)c1ccccc1 (centres undefined) , if possible.
Result string: 15.8 µM (inconclusive)

Query string: Also Nc1nc(-c2ccc3ccccc3c2)cc(-c2cc(-c3ccc4ccccc4c3)nc(N)n2)n1 , if possible.
Result string: 0.501 µM (inconclusive)

Query string: Also O=C(Nc1ccccc1)/C(=C\c1ccc2c(c1)OCO2)NC(=O)c1ccco1 , if possible.
Result string: 25.1 µM (inconclusive)

Query string: Also O=C1c2ccccc2C(=O)c2c(NC3CCCCC3)ccc(Nc3ccc(S(=O)(=O)O)cc3)c21 , if possible.
Result string: 1.26 µM (inconclusive)

Query string: Also CC(C)CNCC(=O)N1c2ccccc2Sc2ccccc21.O=C(O)C(=O)O , if possible.
Result string: 15.8 µM (inconclusive)

* * *

Measurement target: UniProt:P10635
Sequence (P10635 whole entry): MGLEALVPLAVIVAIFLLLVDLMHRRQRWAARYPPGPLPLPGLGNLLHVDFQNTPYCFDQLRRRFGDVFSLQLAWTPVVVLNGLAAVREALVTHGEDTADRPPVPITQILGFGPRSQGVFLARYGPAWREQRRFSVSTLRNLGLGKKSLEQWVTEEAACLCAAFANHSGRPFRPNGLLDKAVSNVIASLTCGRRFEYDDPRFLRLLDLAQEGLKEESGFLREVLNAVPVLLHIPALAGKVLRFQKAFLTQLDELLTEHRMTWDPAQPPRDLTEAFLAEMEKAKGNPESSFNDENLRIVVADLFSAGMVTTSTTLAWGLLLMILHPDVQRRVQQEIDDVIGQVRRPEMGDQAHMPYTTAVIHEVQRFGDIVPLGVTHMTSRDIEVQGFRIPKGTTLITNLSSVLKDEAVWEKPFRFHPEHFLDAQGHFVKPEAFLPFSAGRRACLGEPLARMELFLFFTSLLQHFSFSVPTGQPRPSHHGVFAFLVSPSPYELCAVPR
Entries annotated with measured AC50

* CCCc1nc2ccccc2c(C(=O)OCC(=O)Nc2cccc(S(=O)(=O)N3CCOCC3)c2)c1CC | 17.8 µM (inconclusive)
* COCCn1c(=O)c(-c2cccc(C#N)c2)nc2cnc(N(C)C)nc21 | 0.1 µM (inconclusive)
* COc1ccccc1-c1nc(NCc2cnc(C)cn2)c2ccccc2n1 | 31.6 µM (inconclusive)
* Cc1ccc(N(CCC#N)C(=O)CSc2ccc3c(c2)OCCO3)cc1 | 25.1 µM (inconclusive)
* COCC(=O)N1CCC[C@@]2(CCN(c3ncccn3)C2)C1 | 15.8 µM (inconclusive)
* Fc1cccc(/C=N\N=C/c2cccc(F)c2)c1 | 25.1 µM (inconclusive)

Query string: Fill blank: measured AC50 of the compound CC(C)CNCC(=O)N1c2ccccc2Sc2ccccc21.O=C(O)C(=O)O is ____.
Result string: 28.2 µM (inconclusive)

Query string: Also O=C(CSc1nc2ccccc2s1)Nc1nccs1 , if possible.
Result string: 0.316 µM (inconclusive)

Query string: Also Cn1c(C(=O)NCC2CCCO2)cc2c(=O)n3ccccc3nc21 (stereo not drawn) , if possible.
Result string: 3.55 µM (inconclusive)

Query string: Also O=C(Nc1ccc(F)cc1)c1cc(S(=O)(=O)N2CCCCC2)cs1 , if possible.
Result string: 25.1 µM (inconclusive)

Query string: Also O=C(Nc1ccc2nc(-c3ccc(Br)o3)[nH]c2c1)c1ccco1 , if possible.
Result string: 1 µM (inconclusive)

Query string: Also COc1ccc2c(Cc3c4ccccc4cc4ccccc34)cncc2c1O , if possible.
Result string: 3.16 µM (inconclusive)

Query string: Also O=C(O)[C@@H]1Cc2c([nH]c3ccccc23)[C@@H](CCCCO)N1 , if possible.
Result string: 3.98 µM (inconclusive)

* * *

Measurement target: Corticotropin-releasing factor receptor 2/Corticotropin-releasing factor-binding protein (Homo sapiens, UniProt P24387+Q13324)
Sequence (Q13324 whole entry): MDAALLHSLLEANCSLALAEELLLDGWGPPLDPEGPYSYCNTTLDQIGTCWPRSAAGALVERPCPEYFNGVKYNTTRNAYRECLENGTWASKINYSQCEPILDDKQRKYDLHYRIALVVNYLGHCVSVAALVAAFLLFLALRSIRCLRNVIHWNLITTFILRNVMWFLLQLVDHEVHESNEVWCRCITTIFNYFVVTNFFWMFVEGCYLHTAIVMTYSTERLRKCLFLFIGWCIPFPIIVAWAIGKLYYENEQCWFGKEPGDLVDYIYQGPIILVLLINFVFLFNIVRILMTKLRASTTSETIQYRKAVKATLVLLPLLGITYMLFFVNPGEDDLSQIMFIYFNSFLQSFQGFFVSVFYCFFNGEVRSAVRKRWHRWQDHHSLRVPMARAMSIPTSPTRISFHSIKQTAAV
Sequence (P24387 whole entry): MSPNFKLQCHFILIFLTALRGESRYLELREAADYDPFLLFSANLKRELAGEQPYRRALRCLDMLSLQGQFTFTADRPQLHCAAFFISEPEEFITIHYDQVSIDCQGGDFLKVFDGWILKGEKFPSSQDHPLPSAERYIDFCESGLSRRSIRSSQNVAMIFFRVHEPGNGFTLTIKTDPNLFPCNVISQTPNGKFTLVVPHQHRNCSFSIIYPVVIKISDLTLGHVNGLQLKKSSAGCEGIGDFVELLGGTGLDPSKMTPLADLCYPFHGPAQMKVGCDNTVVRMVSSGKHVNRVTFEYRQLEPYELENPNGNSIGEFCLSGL
Test name: Dose Response confirmation of uHTS hits for small molecule antagonists of the CRF-binding protein and CRF-R2 receptor complex.
Format: functional
Recorded conditions: read-out: IC50_Mean
Activity calls are given as the source filed them.
Choose one outcome from this list and give only that: t for active, f for inactive

Please review the entries below; each comes with its answer.
• Cc1ccnc(N2CCCC(C(=O)NC3CC3)C2)n1 (stereo not given) = f
• Cc1nn(S(=O)(=O)c2cccs2)c(C)c1Sc1ccc([N+](=O)[O-])cc1 = t
• CC(=O)Nc1cc(C(=O)N2CCC3(CC2)OCCO3)ccc1S(=O)(=O)c1ccc(C)cc1 = f
• CC(=O)Nc1ccc(S(=O)(=O)N2CCC(c3nnc(-c4ccc(C)cc4)o3)CC2)cc1 = f

Query string: Could you please tell me the result logged for CCN(c1ccc(NS(=O)(=O)c2cc(Cl)ccc2Cl)cc1)C(C)C in this assay?
Result string: f

* * *

Measurement target: FAD-linked sulfhydryl oxidase ALR (Homo sapiens)
Sequence (P55789 whole entry): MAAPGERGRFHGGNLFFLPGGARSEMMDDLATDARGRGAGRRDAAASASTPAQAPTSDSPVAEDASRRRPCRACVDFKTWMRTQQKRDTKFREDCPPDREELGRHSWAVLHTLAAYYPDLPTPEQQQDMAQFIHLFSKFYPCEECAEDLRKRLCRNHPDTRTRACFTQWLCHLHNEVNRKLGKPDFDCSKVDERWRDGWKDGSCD
Test name: ALR-catalysed DTT oxidation blockers – biochemical, H2O2 detection, luminescence, cherry-pick, dose response (AID 493248)
Active and inactive are the calls of the source.
Entries annotated with measured AC50

Some solved entries appear below for comparison.
* COc1cc(/C=N/N2CCCCC2)cc(OC)c1O | 0.639 µM (active)
* CN1C(=O)C(=CNNc2ccccc2)C(=O)N(C)C1=O | 0.031 µM (active)
* Cc1nc2cc(N)ccc2n1C1CCCCC1 | 0.277 µM (active)
* COc1cccc(-c2noc(Cn3nc(C)c([N+](=O)[O-])c3C)n2)c1 | 0.983 µM (active)

Query string: Hello, I am looking for reported AC50 with FAD-linked sulfhydryl oxidase ALR (Homo sapiens) for CN(C)c1ccc(NC(=O)Oc2ccccc2)cc1 . Could you help?
Result string: 1.88 µM (active)

Query string: Also Oc1cc(O)nc(SCc2ccccc2)n1 , if possible.
Result string: 2.33 µM (active)

Query string: Also CC(C)NS(=O)(=O)c1ccc2c(c1)NCC2 , if possible.
Result string: 5.77 µM (active)

Query string: Also O=C(CC(=O)N/N=C/c1ccc(O)cc1)N/N=C/c1ccc(O)cc1 , if possible.
Result string: 1.15 µM (active)

* * *

Measurement target: Induced myeloid leukemia cell differentiation protein Mcl-1 (Homo sapiens)
Sequence (Q07820 whole entry): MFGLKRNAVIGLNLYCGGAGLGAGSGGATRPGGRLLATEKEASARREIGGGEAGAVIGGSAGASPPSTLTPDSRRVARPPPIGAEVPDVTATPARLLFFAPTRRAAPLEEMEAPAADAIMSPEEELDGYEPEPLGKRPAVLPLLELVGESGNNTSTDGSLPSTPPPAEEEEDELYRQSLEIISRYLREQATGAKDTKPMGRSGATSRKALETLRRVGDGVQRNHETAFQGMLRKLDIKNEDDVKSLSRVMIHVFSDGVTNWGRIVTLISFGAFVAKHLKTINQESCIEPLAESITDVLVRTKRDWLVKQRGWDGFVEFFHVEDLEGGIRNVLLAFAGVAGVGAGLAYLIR
Format: functional
Active and inactive are the calls of the source.
Recorded metric: IC50

Some solved entries appear below for comparison.
• CN(C)c1ccc(/N=c2/sc3ccccc3n2C)cc1 = 40.2 µM (active)
• O=C(COC(=O)c1ccc2c(c1)C(=O)N(Cc1ccncc1)C2=O)Nc1ccccc1[N+](=O)[O-] = 4.84 µM (active)
• O=C(N/N=C/c1ccco1)c1cccc(N2Cc3ccccc3C2)c1 = 3.75 µM (active)

Kindly consider the entry below.
Query string: Hello, I am looking for reported IC50 with Induced myeloid leukemia cell differentiation protein Mcl-1 (Homo sapiens) for CC(=O)c1ccc2c(c1)C1C=CCC1C(C(=O)O)N2 (centres undefined) . Could you help?
Result string: 5.11 µM (active)

* * *

Measurement target: NAD-dependent protein deacylase sirtuin-5, mitochondrial (Homo sapiens)
Sequence (Q9NXA8 whole entry): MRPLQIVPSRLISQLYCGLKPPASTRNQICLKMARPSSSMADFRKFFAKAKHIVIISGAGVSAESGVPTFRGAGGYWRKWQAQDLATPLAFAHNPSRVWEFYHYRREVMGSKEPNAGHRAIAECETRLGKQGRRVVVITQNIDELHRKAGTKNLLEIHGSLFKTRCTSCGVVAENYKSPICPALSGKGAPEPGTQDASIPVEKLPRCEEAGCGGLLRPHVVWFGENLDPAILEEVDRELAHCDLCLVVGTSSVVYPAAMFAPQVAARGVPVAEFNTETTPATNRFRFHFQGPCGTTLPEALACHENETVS
Test name: sirtuin-5 deacylation blockers, concentration series – biochemical, fluorescence imaging, cherry-pick, set 5, dose response (AID 720591);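 further: desuccinylation of succinyl peptide AMC substrate read as fluorescence after trypsin release; potency of inhibitors that lower fluorescence and may act on trypsin instead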
Active and inactive are the calls of the source.
Choose one outcome from this list and give only that: yes for active, no for inactive

Please review the entries below; each comes with its answer.
* CSc1ccccc1NC(=O)COC(=O)CCC(=O)c1ccc(F)cc1 | no
* CCCSc1nnc(NC(=O)CSc2sc3c(O)cc(O)nc3c2C#N)s1 | no
* COc1ccc(S(=O)(=O)N2CCOCC2)cc1NC(=O)CSc1n[nH]c(C(C)C)n1 | no

Query string: Could you please tell me the result logged for COc1ccc(OC)c(-c2csc(NC(=O)Cn3[nH]c(=O)c4ccccc4c3=O)n2)c1 in this assay?
Result string: yes

* * *

Test name: NIH3T3 cell viability loss – ATP luminescence, mouse fibroblasts, counter-screen, dose response (AID 2010);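 further: cells exposed to compound for about 90 hours before reading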
Assay type: functional, cell-based
Calls of active or inactive are those of the source.
Recorded metric: EC50

Query string: Fill blank: measured EC50 of the compound CCN1C(=O)C(CC(=O)Nc2ccc(Br)cc2)N(CCCc2ccccc2)C1=S (stereo not given) is ____.
Result string: > 60 µM (not active)

Query string: Also O=[N+]([O-])c1ccccc1/C=C/C=N/Nc1ccc(S(=O)(=O)Nc2ccc(Cl)cc2)cc1[N+](=O)[O-] , if possible.
Result string: > 60 µM (not active)

Query string: Also O=C(CNC1CCN(Cc2ccccc2)CC1)Nc1ccc(S(=O)(=O)N2CCCCC2)cc1 , if possible.
Result string: > 30 µM (not active)

Query string: Also CCN(CC)c1ccc(/C=N/NC(=O)CNC(=O)C2COc3ccccc3O2)c(O)c1 (stereo not given) , if possible.
Result string: 4.2 µM (active)
